Molecular target: Ataxin-2 (Homo sapiens)
Assay: qHTS for Inhibitors of ATXN expression.
Assay type: functional
The campaign covered roughly 400,000 compounds. About 2,100 (0.53%) were called active. Inconclusive results (about 14%) are left out. The rule behind the calls is not given here. Only a selection was taken, and actives are over-represented in it overall.
Respond only with the outcome that fits, drawn from true (1) for active, false (0) for inactive

In this assay, the call recorded for CCOC(=O)Cn1cc(/C=C/[N+](=O)[O-])c2ccccc21 was what?
true (1)

In this assay, the call recorded for O=[N+]([O-])c1ccc(Nc2ccccc2F)nc1 was what?
false (0)

In this assay, the call recorded for NS(=O)(=O)c1ccc(S(=O)(=O)c2ccccc2)nc1 was what?
false (0)

---

Target: Ataxin-2 (Homo sapiens) (UniProt Q99700)
Sequence (Q99700 whole entry): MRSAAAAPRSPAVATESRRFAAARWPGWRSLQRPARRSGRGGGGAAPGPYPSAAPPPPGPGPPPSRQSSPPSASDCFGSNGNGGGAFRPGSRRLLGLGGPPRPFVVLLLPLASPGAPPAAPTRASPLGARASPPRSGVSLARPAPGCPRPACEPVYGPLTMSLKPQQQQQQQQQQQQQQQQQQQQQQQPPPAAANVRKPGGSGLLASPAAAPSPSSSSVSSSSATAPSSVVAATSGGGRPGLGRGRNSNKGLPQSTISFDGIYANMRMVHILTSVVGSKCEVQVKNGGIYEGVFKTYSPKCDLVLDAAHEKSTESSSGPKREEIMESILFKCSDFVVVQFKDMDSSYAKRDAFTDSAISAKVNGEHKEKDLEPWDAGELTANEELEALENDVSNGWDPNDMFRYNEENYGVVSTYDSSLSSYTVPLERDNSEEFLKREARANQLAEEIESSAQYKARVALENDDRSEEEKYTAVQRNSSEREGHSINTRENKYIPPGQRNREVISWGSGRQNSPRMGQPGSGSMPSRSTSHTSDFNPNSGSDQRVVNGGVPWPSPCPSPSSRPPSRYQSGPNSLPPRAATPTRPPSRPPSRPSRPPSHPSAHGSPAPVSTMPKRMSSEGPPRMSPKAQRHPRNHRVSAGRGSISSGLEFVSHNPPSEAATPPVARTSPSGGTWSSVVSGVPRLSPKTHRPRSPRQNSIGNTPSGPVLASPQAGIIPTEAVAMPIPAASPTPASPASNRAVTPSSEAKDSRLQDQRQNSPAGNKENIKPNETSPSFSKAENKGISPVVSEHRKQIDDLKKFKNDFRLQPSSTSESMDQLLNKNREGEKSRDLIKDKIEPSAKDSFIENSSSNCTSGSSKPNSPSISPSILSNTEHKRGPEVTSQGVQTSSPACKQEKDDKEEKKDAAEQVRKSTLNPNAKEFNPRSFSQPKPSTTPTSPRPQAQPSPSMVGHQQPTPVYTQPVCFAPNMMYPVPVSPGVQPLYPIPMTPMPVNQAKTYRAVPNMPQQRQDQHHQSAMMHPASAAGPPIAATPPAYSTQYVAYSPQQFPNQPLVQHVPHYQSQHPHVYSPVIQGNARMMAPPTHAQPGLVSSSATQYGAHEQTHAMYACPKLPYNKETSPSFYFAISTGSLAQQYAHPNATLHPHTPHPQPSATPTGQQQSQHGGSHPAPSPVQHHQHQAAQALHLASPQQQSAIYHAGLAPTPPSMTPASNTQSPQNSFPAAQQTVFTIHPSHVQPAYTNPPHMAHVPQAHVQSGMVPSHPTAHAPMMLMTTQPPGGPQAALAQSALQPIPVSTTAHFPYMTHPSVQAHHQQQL
Assay: qHTS for Inhibitors of ATXN expression.
Format: functional
Among all 400,000 compounds or so, about 2,100 (0.53%) were called active. Not shown: some 14% with an inconclusive outcome. The rule behind the calls is not given here. This is one part of a sample in which actives are shown more often than they occur.
Respond only with the outcome that fits, drawn from 1 (active), 0 (inactive)

Cc1nc(-c2ccc([N+](=O)[O-])cc2)c(-c2ccccc2)o1 : 0

Please examine the following record next.
In this assay, the call recorded for Nc1c(C(=O)N/N=C/c2ccc(F)cc2)oc2nc(-c3ccccc3)cc(-c3ccco3)c12 was what?
0

---

Biological target: Ataxin-2 (Homo sapiens)
Assay: qHTS for Inhibitors of ATXN expression.
Assay type: functional
About 2,100 (0.53%) of roughly 400,000 compounds were called active. Another 14% or so got no clear call; they are omitted. No rule for the calls is given here. Many of the other results were omitted from the sample, so actives are more common in it than they were.
Respond only with the outcome that fits, drawn from t = active, f = inactive

Cc1ccc(N2C(=O)/C(=C\Nn3cnnc3)c3ccccc3C2=O)cc1 : f
Cn1c(COc2ccc(C(=O)O)cc2)nc2ccccc21 : f
CC(C)C[C@@H](COCc1ccc(Cl)cc1)N1CCN(C(=O)c2ccc(C(F)(F)F)cc2)CCC1=O : t

In this assay, the call recorded for CC(C)CC(COCc1cccc(Cl)c1)N1CCN(C(=O)c2ccc(C(F)(F)F)cc2)CCC1=O (stereo not given) was what?
t

In this assay, the call recorded for CC(C)C[C@@H](COCc1cccc(Cl)c1)N1CCN(C(=O)c2ccc(C(F)(F)F)cc2)CCC1=O was what?
t

In this assay, the call recorded for COc1ccccc1C1CN(c2ccccc2)N=C1c1cccs1 (stereo not given) was what?
f

In this assay, the call recorded for CCn1c(NCc2ccc(OC)cc2)nc2ccccc21 was what?
f

In this assay, the call recorded for COC(=O)c1cc2c(=O)n3ccccc3nc2n(Cc2cccnc2)c1=N was what?
f

In this assay, the call recorded for Cc1cccc(OCCn2cc(/C=N/NC(=O)c3ccncc3)c3ccccc32)c1 was what?
f

In this assay, the call recorded for CCN1CCN(Cc2ccc(NC(=O)c3ccc(C)c(NC(=O)c4cncc(-c5cccs5)c4)c3)cc2C(F)(F)F)CC1 was what?
t

---

Biological target: Ataxin-2 (Homo sapiens)
Assay: qHTS for Inhibitors of ATXN expression.
Assay type: functional
The whole screen tested about 400,000 compounds, of which about 2,100 (0.53%) were called active. About 14% were inconclusive and are not listed. The rule behind the calls is not given here. This is one part of a sample in which actives are shown more often than they occur.
Respond only with the outcome that fits, drawn from active, inactive

O=C(CCl)Nc1ccc2c(c1)OCO2 : active
CCCCn1nc(NC(=O)CC)c2cc3cc(OC)ccc3nc21 : inactive
CC1=C/C(=N\OS(=O)(=O)c2ccccc2)C=CC1=O : active
CCN(CC)c1ccc(/C=C/c2cc(-c3ccccc3)c3ccccc3n2)cc1 : inactive
OCc1ccc(N=Nc2ccccc2)cc1 : inactive

In this assay, the call recorded for O=C(COC(=O)/C=C/c1ccc(S(=O)(=O)N2CCc3ccccc32)cc1)NC1CCS(=O)(=O)C1 (configuration not stated) was what?
inactive

In this assay, the call recorded for COc1ccc(CCN2C(=O)COc3ccccc3C2C(=O)Nc2ccc3c(c2)OCCO3)cc1OC (configuration not stated) was what?
active

In this assay, the call recorded for Oc1c(Cl)cc(Cl)cc1C1=NNC(c2ccc(Cl)cc2)C1 (configuration not stated) was what?
inactive

In this assay, the call recorded for OC(COc1ccc(Cl)cc1)CSc1ccccn1 (configuration not stated) was what?
inactive

In this assay, the call recorded for O=C(CC[C@H]1O[C@@H](n2ccc(=O)[nH]c2=O)[C@H](O)[C@@H]1O)N[C@H](Cc1ccccc1)C(=O)NCCCN1CCCC1=O was what?
inactive

In this assay, the call recorded for Cc1ccc(NC(=O)C2OCCc3ccccc32)cc1C (configuration not stated) was what?
inactive

In this assay, the call recorded for Cc1cccc(NC(=O)CSc2nc3ccccc3c3nc(CCn4cncc4C)nn23)c1 was what?
active
